Experimental protocol: Quantitative High-Throughput drug screen in 47 multiple myeloma cell lines against the NCATS MIPE library collection: INA6_PLB cell viability assay (AID 1918965; note: nearly all actives have a fitted effect of over 55% in size)
Condition notes: INA6 myeloma viability, CellTiter-Glo ATP luminescence, 48 h; series mostly up to 45.8 µM
Inconclusive results are not listed. The source made the active and inactive calls. Calls come from the whole dose curve; as a rule, active = well fitted cell-killing curve with a large enough effect; inconclusive = small, poorly fitted or top-dose-only effect, or effect the other way; inactive = no such curve, though single readings can be large or run the other way.
Classes used: 1.0 = active, 0.0 = inactive

INSERT INTO assay_data (compound, assigned_label) VALUES
  ('C[C@H]1[C@H](O)O[C@@H]2O[C@@]3(C)CC[C@@H]4[C@H](C)CC[C@@H]1[C@@]24OO3', 1.0),
  ('COc1ccc(Cn2ccc3ccc(C(=O)NO)cc32)cc1', 1.0),
  ('O=C(Nc1ncc(SCCN2CCCC2)s1)[C@]1(c2ccc(S(=O)(=O)C3CC3)cc2)C[C@@H]1C1CCCCC1', 1.0),
  ('CNC(=O)c1cc(COc2nnc(Nc3ccc(Cl)cc3)c3ccoc23)ccn1', 1.0),
  ('O=C(O)c1ccc(O)c2ncc(N3CCOCC3)cc12', 0.0),
  ('CCNC(=O)[C@H]1O[C@@H](n2cnc3c(N)nc(NCCc4ccc(CCC(=O)O)cc4)nc32)[C@H](O)[C@H]1O', 1.0),
  ('CCC(C)SSc1ncc[nH]1 (configuration not stated)', 1.0),
  ('Clc1ccc(C2(c3ccc(-c4cn[nH]c4)cc3)CCNCC2)cc1', 1.0),
  ('Cc1cccc(Nc2nc(N[C@@H]3CCCC[C@H]3N)ncc2C(N)=O)c1', 1.0),
  ('C[C@H](CCC(=O)O)[C@H]1CC[C@H]2[C@H]3[C@@H](CC[C@]12C)[C@@]1(C)CC[C@@H](O)C[C@H]1C[C@@H]3O', 0.0),
  ('CO[C@@H]1C(N(C)C(=O)c2ccccc2)C[C@H]2O[C@]1(C)n1c3ccccc3c3c4c(c5c6ccccc6n2c5c31)C(=O)NC4=O (some centres not stated)', 1.0),
  ('O=C1NC(=O)C(c2cnc3ccccn23)=C1c1cn2c3c(cccc13)CN(C(=O)N1CCOCC1)CC2', 1.0),
  ('CC(=O)Nc1cccc(-n2c(=O)n(C3CC3)c(=O)c3c(Nc4ccc(I)cc4F)n(C)c(=O)c(C)c32)c1', 1.0),
  ('C=CCc1cccc(C=NNC(=O)CN2CCN(Cc3ccccc3)CC2)c1O', 1.0),
  ('Cc1cn([C@@H]2C[C@@H](O)[C@H](CO)O2)c(=O)[nH]c1=O', 1.0),
  ('COc1cc([C@H]2Oc3cc([C@H]4Oc5cc(O)cc(O)c5C(=O)[C@H]4O)ccc3O[C@H]2CO)ccc1O', 1.0),
  ('C[C@]12C=CC(=O)C=C1CC[C@@H]1[C@@H]2[C@@H](O)C[C@@]2(C)[C@@H]1CC[C@]2(O)C(=O)CO', 1.0),
  ('CCCCC(F)(F)[C@@]1(O)CC[C@H]2[C@H](CC(=O)[C@@H]2CCCCCCC(=O)O)O1', 0.0),
  ('CN(C)CC[C@H](CSc1ccccc1)Nc1ccc(S(=O)(=O)NC(=O)c2ccc(N3CCN(Cc4ccccc4-c4ccc(Cl)cc4)CC3)cc2)cc1[N+](=O)[O-]', 1.0),
  ('C[C@@H]1O[C@@H](O[C@H]2CC[C@@]3(C)[C@H](CC[C@@H]4[C@H]3C[C@@H](O)[C@]3(C)[C@@H](C5=CC(=O)OC5)CC[C@]43O)C2)C[C@H](O)[C@@H]1O[C@H]1C[C@H](O)[C@H](O[C@H]2C[C@H](O)[C@@H](O)[C@@H](C)O2)[C@H](C)O1 (stereo in doubt)', 1.0),
  ('CC(C)c1onc(-c2c(Cl)cccc2Cl)c1COc1ccc(C=Cc2cccc(C(=O)O)c2)c(Cl)c1', 0.0),
  ('CC(=O)O[C@]1(C(C)=O)CC[C@H]2[C@@H]3C=C(Cl)C4=CC(=O)[C@@H]5C[C@H]5[C@]4(C)[C@@H]3CC[C@@]21C', 1.0),
  ('NC(=O)c1ncn([C@@H]2O[C@H](CO)[C@@H](O)[C@@H]2O)n1', 0.0),
  ('COc1ccc(-c2cc(=O)c3c(O)cc(O[C@@H]4O[C@H](CO[C@@H]5O[C@@H](C)[C@H](O)[C@@H](O)[C@@H]5O)[C@@H](O)[C@H](O)[C@@H]4O)cc3o2)cc1O', 1.0),
  ('Clc1ccc(COC(Cn2ccnc2)c2ccc(Cl)cc2Cl)c(Cl)c1 (configuration not stated)', 1.0),
  ('CN(C)CCN(Cc1ccc(Cl)cc1)c1ccccn1', 1.0),
  ('O=C1CCCC(=O)C1C(=O)c1ccc(C(F)(F)F)cc1[N+](=O)[O-]', 0.0);

* * *

Experimental protocol: Quantitative High-Throughput drug screen in 47 multiple myeloma cell lines against the NCATS MIPE library collection: ARD_JJKsccE7 cell viability assay (AID 1918929;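 for viability: 100% = DMSO-only wells and 0% = media-only wells without cells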)
Condition notes: ARD myeloma cell line viability, CellTiter-Glo, 48 h; series mostly up to 45.8 µM
Results filed as inconclusive are left out. Calls of active or inactive are those of the source. Calls come from the whole dose curve; as a rule, active = well fitted cell-killing curve with a large enough effect; inconclusive = small, poorly fitted or top-dose-only effect, or effect the other way; inactive = no such curve, though single readings can be large or run the other way.
Classes used: active, inactive

INSERT INTO results (molecule, assigned_label) VALUES
  ('COc1cc(CNC(=O)CCCCC=CC(C)C)ccc1O', 'inactive'),
  ('COc1ccc2c(c1)CC[C@H]1[C@@H]2CC[C@]2(C)[C@@H](NCCCCCCN3C(=O)C=CC3=O)CC[C@H]12', 'inactive'),
  ('O=C(c1ccc(F)c(F)c1Nc1ccc(I)cc1F)N1CC(O)([C@H]2CCCCN2)C1', 'active'),
  ('CN(C)CCOc1cc(-c2cn[nH]c2)ccc1NC(=O)C1COc2ccccc2O1 (stereo not drawn)', 'inactive'),
  ('CN(C)CCOc1ccc(-c2nc(-c3ccc4c(c3)CCC4=NO)c(-c3ccncc3)[nH]2)cc1', 'active'),
  ('CC(C)n1c(C=C[C@H](O)C[C@H](O)CC(=O)O)c(-c2ccc(F)cc2)c2ccccc21', 'active'),
  ('C=CC[N+]1([C@H]2C[C@H]3[C@@H]4CC[C@H]5C[C@H](O)[C@@H](N6CCOCC6)C[C@]5(C)[C@@H]4CC[C@]3(C)[C@H]2OC(C)=O)CCCC1', 'inactive'),
  ('Cc1cccc(Nc2nc(N[C@@H]3CCCC[C@H]3N)ncc2C(N)=O)c1', 'active'),
  ('CNc1nc(-c2ccc3c(N)n[nH]c3c2)cc(N2C[C@@H](C(=O)NC3CCCCC3)CC[C@@H]2C)n1', 'active'),
  ('c1cc(OCCN2CCCCC2)cc(-c2n[nH]c3ccc(-c4ncn[nH]4)cc23)c1', 'active'),
  ('C=CCc1cccc(C=NNC(=O)CN2CCN(Cc3ccccc3)CC2)c1O', 'active'),
  ('c1ccc(CNc2nc(N3CCOc4ccccc43)nc3c2CCCC3)cc1', 'active'),
  ('CN[C@@H](C)[C@H]1[C@H](O)C[C@@]2(C)[C@@H]3CC[C@H]4C(C)(C)[C@@H](NC)CC[C@@]45C[C@@]35CC[C@]12C', 'inactive'),
  ('CCCCN(CCCC)CC(O)c1cc(Cl)cc2c1-c1ccc(Cl)cc1C2=Cc1ccc(Cl)cc1 (stereo not drawn)', 'inactive'),
  ('CO[C@@H]1C(N(C)C(=O)c2ccccc2)C[C@H]2O[C@]1(C)n1c3ccccc3c3c4c(c5c6ccccc6n2c5c31)C(=O)NC4=O (stereo partly drawn)', 'active'),
  ('CC(C)(CO)[C@@H](O)C(=O)NCCC(=O)O', 'inactive'),
  ('Cc1nc2c([nH]1)CCN(C(=O)c1ccc(NC(=O)c3ccccc3-c3ccccc3)cc1)c1ccccc1-2', 'inactive'),
  ('CC(C)=CCCC(C)=CCCC(C)=CCCC(C)=CCCC(C)=CCCC(C)=CCCC(C)=CCCC(C)=CCCC(C)=CCO', 'inactive');

* * *

Experimental protocol: Quantitative High-Throughput drug screen in 47 multiple myeloma cell lines against the NCATS MIPE library collection: KMS34_JCRB cell viability assay (AID 1918985); note: nearly all actives have a fitted effect of over 40% in size
Condition notes: KMS34 myeloma viability, CellTiter-Glo ATP luminescence, 48 h; series mostly up to 45.8 µM
Text: PI: Beverly A. Mock Ph.D. Laboratory of Cancer Biology and Genetics, Center for Cancer Research, National Cancer Institute, National Institute of Health, Bethesda, Maryland […] 5; Detector; 425V; Luminescence; Viewlux PerkinElmer. […] 1. […] Briefly, the corresponding myeloma cell lines were screened in 1,536-well plates with 500 cells, 5-uL per well for inhibition of cell viability (assessed by measuring ATP levels with CellTiterGlo). […]
Inconclusive results are not listed. The source made the active and inactive calls. Calls come from the whole dose curve; as a rule, active = well fitted cell-killing curve with a large enough effect; inconclusive = small, poorly fitted or top-dose-only effect, or effect the other way; inactive = no such curve, though single readings can be large or run the other way.
Classes used: true (1) = active, false (0) = inactive

INSERT INTO measurements (molecule, assigned_label) VALUES
  ('OC1CCC(Nc2ncc3nc(Nc4c(F)cc(F)cc4F)n([C@@H]4CCOC4)c3n2)CC1 (stereo partly specified)', 'true (1)'),
  ('CC[C@H]1OC(=O)[C@H](C)[C@@H](O[C@H]2C[C@@](C)(OC)[C@@H](O)[C@H](C)O2)[C@H](C)[C@@H](O[C@@H]2O[C@H](C)C[C@H](N(C)C)[C@H]2O)[C@](C)(O)C[C@H](C)C(=NOCOCCOC)[C@H](C)[C@@H](O)[C@]1(C)O', 'false (0)'),
  ('C[C@@]1(c2cc(-c3cncnc3)c(F)cc2F)CCSC(N)=N1', 'false (0)'),
  ('CCC(=C(c1ccc(O)cc1)c1ccc(OCCNC)cc1)c1ccccc1', 'true (1)'),
  ('CCN(CCO)CCCOc1ccc2c(Nc3cc(CC(=O)Nc4cccc(F)c4)[nH]n3)ncnc2c1', 'false (0)'),
  ('CCC=CC[C@H]1C(=O)CC[C@@H]1CC(=O)OC', 'false (0)'),
  ('CC[C@H](C)C(=O)O[C@H]1C[C@H](O)C=C2C=C[C@H](C)[C@H](CC[C@@H](O)C[C@@H](O)CC(=O)O)[C@H]21', 'false (0)'),
  ('O=C1C(CCC(O)c2ccc(F)cc2)C(c2ccc(O)cc2)N1c1ccc(F)cc1 (stereo unspecified)', 'false (0)'),
  ('CN1C(=O)C[C@H](C(=O)N[C@@H](Cc2cnc[nH]2)C(=O)N2CCC[C@@H]2C(N)=O)NC1=O', 'true (1)'),
  ('N#CC1(c2cccc(C(=O)Nc3cc(Oc4ccc5nc(NC(=O)C6CC6)sc5n4)ccc3F)c2Cl)CC1', 'false (0)'),
  ('CN[C@@H]1CN(c2ccc3c(=O)c(C(=O)O)cn(-c4nccs4)c3n2)C[C@@H]1OC', 'true (1)'),
  ('C[C@]12C=CC(=O)C=C1CC[C@@H]1[C@@H]2[C@@H](O)C[C@@]2(C)[C@@H]1CC[C@]2(O)C(=O)CO', 'true (1)'),
  ('CN(CC=CC#CC(C)(C)C)Cc1cccc2ccccc12', 'false (0)'),
  ('Oc1cc(O)cc(C=Cc2ccc(O)c(O)c2)c1', 'true (1)'),
  ('CN1[C@H]2CC[C@H]1CC(OC(=O)c1c[nH]c3ccccc13)C2 (stereo partly specified)', 'false (0)'),
  ('Oc1ccc(C=Cc2cc(O)cc(O)c2)cc1', 'true (1)');
